TARGET_OR_TEST_SYSTEM: T1, hMC3-R (human, UniProt P41968 1-323)
T1 construct: whole, on cells; Assayed as membranes of CHO-K1 cells expressing the receptor; also called hMC-R receptor subtype 3; melacortin-3 (MC3-R)
T1 sequence (P41968 whole entry): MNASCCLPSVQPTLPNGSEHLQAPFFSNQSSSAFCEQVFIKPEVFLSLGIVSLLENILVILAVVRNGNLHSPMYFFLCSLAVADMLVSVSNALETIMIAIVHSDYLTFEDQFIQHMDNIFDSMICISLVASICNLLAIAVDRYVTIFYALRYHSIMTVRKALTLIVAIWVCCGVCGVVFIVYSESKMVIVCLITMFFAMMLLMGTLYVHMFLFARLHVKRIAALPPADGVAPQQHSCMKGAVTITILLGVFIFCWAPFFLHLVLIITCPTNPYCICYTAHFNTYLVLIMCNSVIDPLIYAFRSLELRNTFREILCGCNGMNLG
TEST_DESCRIPTION: competition with [125I]-NDP-α-MSH, CHO-K1 membranes
Method: Cellular membranes used for the in vitro receptor binding assays were obtained from transgenic CHO-K1 cells stably expressing hMC-R receptor subtypes 1, 3, 4 or 5. […] Competitive inhibition of [¹²⁵I](Tyr²)-(Nle⁴-D-Phe⁷)α-MSH ([¹²⁵I]-NDP-α-MSH, Amersham Biosciences®) binding was carried out in polypropylene 96 well plates. […] Binding data were analyzed by computer-assisted non-linear regression analysis (XL fit; IDBS).
Bridge positions count the residues as written; N and C are the ends. Square brackets hold non-standard residues; d marks the D form. Ends that are not written are not given here. hPhe = N[C@@H](CCc1ccccc1)C(=O)O; dCha = N[C@H](CC1CCCCC1)C(=O)O; dChg = N[C@@H](C(=O)O)C1CCCCC1; Nle = CCCC[C@H](N)C(=O)O; Ava = NCCCCC(=O)O; GABA = NCCCC(=O)O; βAla = NCCC(=O)O
// returns FALSE unless Ki is strictly below 30 nM, in which case TRUE

{"columns": ["BINDER", "LABEL_VALUE"],
 "data": [
  ["Ac-[Nle]C[dA]H[dF]RW[Ava]C-NH2 (disulfide 2-9; SMILES CCCC[C@H](NC(C)=O)C(=O)N[C@H]1CSSC[C@@H](C(N)=O)NC(=O)CCCCNC(=O)[C@H](Cc2c[nH]c3ccccc23)NC(=O)[C@H](CCCNC(=N)N)NC(=O)[C@@H](Cc2ccccc2)NC(=O)[C@H](Cc2c[nH]cn2)NC(=O)[C@@H](C)NC1=O) [Ac-Nle-c(Cys-D-Ala-His-D-Phe-Arg-Trp-Apn-Cys)-NH2]", "FALSE"],
  ["Ac-[Nle]D[dA]H[dF]RWK-NH2 (lactam 2-8; SMILES CCCC[C@H](NC(C)=O)C(=O)N[C@H]1CC(=O)NCCCC[C@@H](C(N)=O)NC(=O)[C@H](Cc2c[nH]c3ccccc23)NC(=O)[C@H](CCCNC(=N)N)NC(=O)[C@@H](Cc2ccccc2)NC(=O)[C@H](Cc2c[nH]cn2)NC(=O)[C@@H](C)NC1=O) [Ac-Nle-c(Asp-D-Ala-His-D-Phe-Arg-Trp-Lys)-NH2]", "FALSE"],
  ["Ac-[hPhe]DH[dF]RW[GABA]K-NH2 (lactam 2-8) [Ac-hPhe-c(Asp-His-D-Phe-Arg-Trp-Gaba-Lys)-NH2]", "TRUE"],
  ["Ac-[Nle]C[dCha]H[dF]RWC-NH2 (disulfide 2-8; SMILES CCCC[C@H](NC(C)=O)C(=O)N[C@H]1CSSC[C@@H](C(N)=O)NC(=O)[C@H](Cc2c[nH]c3ccccc23)NC(=O)[C@H](CCCNC(=N)N)NC(=O)[C@@H](Cc2ccccc2)NC(=O)[C@H](Cc2c[nH]cn2)NC(=O)[C@@H](CC2CCCCC2)NC1=O) [Ac-Nle-c(Cys-D-Cha-His-D-Phe-Arg-Trp-Cys)-NH2]", "TRUE"],
  ["[Nle]CH[dF]RW[GABA]C-NH2 (disulfide 2-8) [Nle-c(Cys-His-D-Phe-Arg-Trp-Gaba-Cys)-NH2]", "TRUE"],
  ["Ac-[dChg]DH[dF]RW[GABA]K-NH2 (lactam 2-8) [Ac-D-Chg-c(Asp-His-D-Phe-Arg-Trp-Gaba-Lys)-NH2]", "TRUE"],
  ["Ac-[Nle]DH[dF]RW[βAla]K-NH2 (lactam 2-8; SMILES CCCC[C@H](NC(C)=O)C(=O)N[C@H]1CC(=O)NCCCC[C@@H](C(N)=O)NC(=O)CCNC(=O)[C@H](Cc2c[nH]c3ccccc23)NC(=O)[C@H](CCCNC(=N)N)NC(=O)[C@@H](Cc2ccccc2)NC(=O)[C@H](Cc2c[nH]cn2)NC1=O) [Ac-Nle-c(Asp-His-D-Phe-Arg-Trp-β-Ala-Lys)-NH2]", "FALSE"]
]}
